Below is a list of entries, each paired with its recorded kcat value.
substrate: O=C(O)C(=O)CC(O)C(=O)O; assay: purified protein; type: biochemical, Homo sapiens; conditions: racemic HOG, 100 mM TRIS pH 8.5, 37°C, aldol cleavage

protein	kcat
human HOGA (hHOGA) (Homo sapiens; N78T) (protein, His-tag (WT, Y140F) cleavable by PreScission leaving GPH, 33,097 Da tag-free; S77, N78 and S198 mutants as MBP fusion, MBP cleaved; tetramer) ASGEGKKVDIAGIYPPVTTPFTATAEVDYGKLEENLHKLGTFPFRGFVVQGSTGEFPFLTSSERLEVVSRVRQAMPKNRLLLAGSGCESTQATVEMTVSMAQVGADAAMVVTPCYYRGRMSSAALIHHYTKVADLSPIPVVLYSVPANTGLDLPVDAVVTLSQHPNIVGMKDSGGDVTRIGLIVHKTRKQDFQVLAGSAGFLMASYALGAVGGVCALANVLGAQVCQLERLCCTGQWEDAQKLQHRLIEPNAAVTRRFGIPGLKKIMDWFGYYGGPCRAPLQELSPAEEEALRMDFTSNGWL	4 s⁻¹
human HOGA (hHOGA) (Homo sapiens; N78Q) (protein, His-tag (WT, Y140F) cleavable by PreScission leaving GPH, 33,097 Da tag-free; S77, N78 and S198 mutants as MBP fusion, MBP cleaved; tetramer) ASGEGKKVDIAGIYPPVTTPFTATAEVDYGKLEENLHKLGTFPFRGFVVQGSQGEFPFLTSSERLEVVSRVRQAMPKNRLLLAGSGCESTQATVEMTVSMAQVGADAAMVVTPCYYRGRMSSAALIHHYTKVADLSPIPVVLYSVPANTGLDLPVDAVVTLSQHPNIVGMKDSGGDVTRIGLIVHKTRKQDFQVLAGSAGFLMASYALGAVGGVCALANVLGAQVCQLERLCCTGQWEDAQKLQHRLIEPNAAVTRRFGIPGLKKIMDWFGYYGGPCRAPLQELSPAEEEALRMDFTSNGWL	6.2 s⁻¹
